- Target Under Test: ATAD2B (Homo sapiens, UniProt Q9ULI0)
- Construct: T7 phage strains displaying bromodomains were grown in parallel
- Sequence (Q9ULI0 951-1066 limits assumed, species assumed): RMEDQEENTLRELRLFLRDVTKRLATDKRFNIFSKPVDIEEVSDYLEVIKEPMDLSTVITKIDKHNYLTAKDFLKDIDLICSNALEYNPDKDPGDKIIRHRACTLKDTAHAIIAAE
- Assay Protocol: Bromodomain binding assay: ATAD2B
Please respond with reported Kd for every item in the list.

Q: Would you kindly share the measured Kd for CCOc1cc(C(=O)N2CCC(N3CCCC3)CC2)ccc1Nc1cc2c(cn1)N(C)C(=O)c1ccccc1N2C [Compound 46] ?
Result: > 20 µM

Q: Would you kindly share the measured Kd for CCOc1cc(C(=O)N[C@H]2CC[C@H](O)CC2)ccc1Nc1cc2c(cn1)N(C)C(=O)c1ccccc1N2C [Compound T62] ?
Result: > 20 µM

====

- System: primary asthmatic human bronchial epithelial cells
- Assay Protocol: IL-17A- or IL-17F-mediated cytokine response by primary asthmatic human bronchial epithelial cells
- Type: cell-based
- Experimental Parameters: Epithelial cell, 48 h, +50 ng/ml IL-17A, 48 h, read-out: EC50 values (μM), MCP-1
- Description: The virally immortalized, normal human bronchial epithelial cell line BEAS-2B was purchased from ATCC (Manassas, Va.). Primary bronchial epithelial cells isolated from a patient diagnosed with asthma were obtained from Lonza (Allendale, N.J.). […] Supernatant was then collected and analyzed for cytokine concentrations using the Bio-Plex Pro Human Cytokine 17-Plex Panel (Bio-Rad Laboratories, Hercules, Calif.) according to the manufacturer's instructions. […]
Parameter Measured: EC50 (µM)
Give a bare numeral; the unit µM is implied.

Q: Would you kindly share the measured EC50 for `CCOc1cc(C(=O)N2CCC(N3CCN(C)CC3)CC2)ccc1Nc1cc2c(cn1)N(C)C(=O)c1ccccc1N2C` ?
Result: 6.25

Q: Would you kindly share the measured EC50 for `CCOc1cc(C(=O)N2CC[C@@H](N(C)C)C2)ccc1Nc1cc2c(cn1)N(C)C(=O)c1ccccc1N2C` ?
Result: 6.1
